Test system: LN-229
Experiment: Antiproliferative activity against human LN229 cells after 72 hrs by MTT assay
Assay type: functional, cell-based
Conditions: LN-229, 72 h
Consider the following compounds; for each one, report its pIC50.
Scale: negative log10 of molar concentration, which is what pIC50 denotes.

Given the compound COc1cccc(-c2nc3sc4c(c3c(=O)[nH]2)CCCC4)c1O , what is its reported pIC50?
4.31

Given the compound Oc1nc(-c2ccccc2)nc2sc3c(c12)CCCC3 , what is its reported pIC50?
4.74

Given the compound O=c1[nH]c(-c2ccc(Cl)cc2Cl)nc2sc3c(c12)CCCC3 , what is its reported pIC50?
4.05

Given the compound Cc1ccc(-c2nc(O)c3c4c(sc3n2)CCCC4)cc1 , what is its reported pIC50?
4.00

Given the compound COc1cc(OC)cc(-c2nc(O)c3c4c(sc3n2)CCCC4)c1 , what is its reported pIC50?
4.32

Given the compound O=[N+]([O-])c1ccc(-c2nc(O)c3c4c(sc3n2)CCCC4)cc1 , what is its reported pIC50?
4.35

Given the compound Oc1nc(-c2ccc(Cl)cc2)nc2sc3c(c12)CCCC3 , what is its reported pIC50?
4.47

Given the compound O=c1[nH]c(-c2ccc(F)cc2)nc2sc3c(c12)CCCC3 , what is its reported pIC50?
4.77

Given the compound COc1ccc(-c2nc(O)c3c4c(sc3n2)CCCC4)cc1OC , what is its reported pIC50?
4.84

Given the compound O=c1[nH]c(-c2cccc([N+](=O)[O-])c2)nc2sc3c(c12)CCCC3 , what is its reported pIC50?
5.08

Given the compound COc1ccc(-c2nc(O)c3c4c(sc3n2)CCCC4)cc1 , what is its reported pIC50?
6.30
